List of IC50 tested on c-Src (Homo sapiens (Human), UniProt P12931).
Sequence (P12931 whole entry, looked up): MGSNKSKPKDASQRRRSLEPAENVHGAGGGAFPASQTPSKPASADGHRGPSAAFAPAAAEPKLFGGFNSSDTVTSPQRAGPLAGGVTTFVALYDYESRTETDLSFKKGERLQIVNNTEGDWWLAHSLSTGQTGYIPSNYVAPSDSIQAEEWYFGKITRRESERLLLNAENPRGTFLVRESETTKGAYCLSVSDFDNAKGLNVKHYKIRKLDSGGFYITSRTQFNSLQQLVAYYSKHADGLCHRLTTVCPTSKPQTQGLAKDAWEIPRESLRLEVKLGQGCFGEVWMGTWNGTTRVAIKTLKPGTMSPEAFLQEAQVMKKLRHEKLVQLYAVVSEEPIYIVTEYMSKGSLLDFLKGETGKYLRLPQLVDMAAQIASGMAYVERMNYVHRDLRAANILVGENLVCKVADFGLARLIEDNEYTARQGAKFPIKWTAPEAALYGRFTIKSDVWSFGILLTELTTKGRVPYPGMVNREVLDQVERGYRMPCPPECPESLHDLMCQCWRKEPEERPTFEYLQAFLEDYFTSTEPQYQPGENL
Reply with the number, then its unit.

INSERT INTO results (molecule, system_name, experimental_readout, meas_value) VALUES
  ('Cc1cc(Nc2nccc(Oc3ccc(NC(=O)Nc4cc(C(C)(C)C)nn4-c4ccc(P(C)(C)=O)cc4)c4ccccc34)n2)cc2cn[nH]c12 [Example 21]', 'c-Src (Homo sapiens (Human), UniProt P12931)', 'IC50', '1 nM');

For each listed entry, give its IC50.
1. Cc1cc(Nc2nccc(Oc3ccc(NC(=O)Nc4cc(C(C)(C)C)nn4-c4cccc(CP(C)(C)=O)c4)c4ccccc34)n2)cc2cn[nH]c12 [Example 32]
2. CC(C)(C)c1cc(NC(=O)Nc2ccc(Oc3ccnc(Nc4ccc(S(F)(F)(F)(F)F)cc4)n3)c3ccccc23)n(-c2ccc(P(C)(C)=O)cc2)n1 [Example 28]
3. CC(C)(C)c1cc(NC(=O)Nc2ccc(Oc3ccnc(Nc4cc(OC(F)(F)F)cc(C(=O)NCCN5CCOCC5)c4)n3)c3ccccc23)n(-c2cccc(CP(C)(C)=O)c2)n1 [Example 59]
4. CC(C)(C)c1cc(NC(=O)Nc2ccc(Oc3ccnc(Nc4cc(C(=O)NCCN5CCOCC5)cc(C(F)(F)F)c4)n3)c3ccccc23)n(-c2cccc(CP(C)(C)=O)c2)n1 [Example 58]
5. CC(C)(C)c1cc(NC(=O)Nc2ccc(Oc3ccnc(Nc4ccccc4)c3)c3ccccc23)n(-c2cccc(CP(C)(C)=O)c2)n1 [Example 41]
6. CCP(=O)(CC)Cc1cccc(-n2nc(C(C)(C)C)cc2NC(=O)Nc2ccc(Oc3ccnc(Nc4cc(C)c5[nH]ncc5c4)n3)c3ccccc23)c1 [Example 36]
7. CCP(=O)(CC)c1ccc(-n2nc(C(C)(C)C)cc2NC(=O)Nc2ccc(Oc3ccnc(Nc4ccccc4)n3)c3ccccc23)cc1 [Example 22]

1: 5 nM; 2: 372 nM; 3: 7 nM; 4: 7 nM; 5: 56 nM; 6: 8 nM; 7: 9 nM

Hi team, please reply with IC50 for each item in this list.
1. CN(CCCO)c1nccc(Oc2ccc(NC(=O)Nc3cc(C(C)(C)C)nn3-c3ccc(P(C)(C)=O)cc3)c3ccccc23)n1 [Example 30]
2. CC(C)c1cc(NC(=O)Nc2ccc(Oc3ccnc(Nc4ccccc4)c3)c3ccccc23)n(-c2cccc(CP(C)(C)=O)c2)n1 [Example 42]

1: 795 nM; 2: 47 nM

====

The following are reported IC50 results, target or system UniProtKB P49840.
Sequence (P49840 whole entry): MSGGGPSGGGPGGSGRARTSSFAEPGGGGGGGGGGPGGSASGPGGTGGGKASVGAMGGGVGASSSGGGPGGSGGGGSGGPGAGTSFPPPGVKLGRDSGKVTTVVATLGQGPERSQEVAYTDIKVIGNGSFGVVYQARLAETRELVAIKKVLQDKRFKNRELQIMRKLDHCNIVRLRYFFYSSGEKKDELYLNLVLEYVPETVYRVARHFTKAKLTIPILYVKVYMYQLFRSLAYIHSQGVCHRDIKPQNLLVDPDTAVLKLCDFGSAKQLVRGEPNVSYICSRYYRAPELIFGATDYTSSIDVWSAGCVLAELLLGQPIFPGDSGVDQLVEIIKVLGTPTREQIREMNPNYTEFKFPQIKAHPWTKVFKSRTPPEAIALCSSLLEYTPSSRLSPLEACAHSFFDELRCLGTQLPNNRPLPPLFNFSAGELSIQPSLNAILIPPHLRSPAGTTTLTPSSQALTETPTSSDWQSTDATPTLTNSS
One number for each entry, in nM.

Answered cases to consult:
INSERT INTO results (molecule, unit_descriptor, meas_value) VALUES
  ('C[Si](C)(C)c1cc(NC(=O)Nc2ccc(Oc3ccnc(Nc4ccccc4)n3)c3ccccc23)n(-c2cccc(CP(C)(C)=O)c2)n1', 'nM', 1270),
  ('COc1cc(Nc2cc(Oc3ccc(NC(=O)Nc4cc(C(C)C)nn4-c4cccc(CP(C)(C)=O)c4)c4ccccc34)ccn2)cc(OCCN2CCOCC2)c1', 'nM', 2810),
  ('COCCOCCOCCOc1cc(Nc2nccc(Oc3ccc(NC(=O)Nc4cc(C(C)(C)C)nn4-c4cccc(CP(C)(C)=O)c4)c4ccccc34)n2)cc(OC)c1', 'nM', 1100),
  ('CCOP(C)(=O)c1ccc(-n2nc(C(C)(C)C)cc2NC(=O)Nc2ccc(Oc3ccnc(Nc4ccccc4)n3)c3ccccc23)cc1 (stereo not drawn)', 'nM', 1440),
  ('Cc1cc(Nc2nccc(Oc3ccc(NC(=O)Nc4cc(C(C)(C)C)nn4-c4cccc(CP(C)(C)=O)c4)c4ccccc34)n2)cc2cn[nH]c12', 'nM', 1320);

Now for the molecule whose IC50 we want.
Tell me its IC50 given CC(C)(C)c1cc(NC(=O)Nc2ccc(Oc3ccnc(Nc4cc(OCCN5CCOCC5)cc(C(F)(F)F)c4)n3)c3ccccc23)n(-c2cccc(CP(C)(C)=O)c2)n1 as the entry.
4190

====

- Tested on: PBMCs
- procedure_details: LPS-induced TNFα/IL-8 release in PBMC cells
- Type: cell-based
- applied_conditions: Homo sapiens, LPS-stimulated PBMCs, IL-8, read-out: IC50 Values for Inhibition of Cytokine Release, PBMCs IL-8
So I've got a bunch of compounds here, and I need their log10(IC50) values.
Could you please treat all values as log10 of IC50 in nM?

These solved cases illustrate the format of a correct answer.
INSERT INTO measurements (compound, meas_value) VALUES
  ('CCP(=O)(CC)c1ccc(-n2nc(C(C)(C)C)cc2NC(=O)Nc2ccc(Oc3ccnc(Nc4ccccc4)n3)c3ccccc23)cc1', 1.52),
  ('C[Si](C)(C)c1cc(NC(=O)Nc2ccc(Oc3ccnc(Nc4ccccc4)n3)c3ccccc23)n(-c2ccc(P(C)(C)=O)cc2)n1', 1.21),
  ('CC(C)(C)c1cc(NC(=O)Nc2ccc(Oc3ccnc(Nc4cccc(C(=O)NCCN5CCOCC5)c4)n3)c3ccccc23)n(-c2ccc(P(C)(C)=O)cc2)n1', 1.42),
  ('Cc1cc(Nc2nccc(Oc3ccc(NC(=O)Nc4cc(C(C)(C)C)nn4-c4cccc(CP(C)(C)=O)c4)c4ccccc34)n2)cc2cn[nH]c12', 0.11),
  ('CC(C)(C)c1cc(NC(=O)Nc2ccc(Oc3ccnc(Nc4ccccc4)c3)c3ccccc23)n(-c2cccc(CP(C)(C)=O)c2)n1', 0.45);

Field: next compound
Give the reported log10(IC50) for this compound. CCOP(C)(=O)c1ccc(-n2nc(C(C)(C)C)cc2NC(=O)Nc2ccc(Oc3ccnc(Nc4ccccc4)n3)c3ccccc23)cc1 (stereo not drawn)
1.38

====

- Tested on: PBMCs
- procedure_details: LPS-induced TNFα/IL-8 release in PBMC cells
- Assay type: cell-based
- applied_conditions: Homo sapiens, LPS-stimulated PBMCs, IL-8, read-out: IC50 Values for Inhibition of Cytokine Release, PBMCs IL-8
Consider the following compounds; for each one, report its pIC50.
Answers are plain numbers, as −log10 of the molar value.

Recorded results for 2 compounds are shown here.
INSERT INTO assay_data (smiles_str, experimental_readout, meas_value) VALUES
  ('COCCOCCOCCOc1cc(Nc2nccc(Oc3ccc(NC(=O)Nc4cc(C(C)(C)C)nn4-c4cccc(CP(C)(C)=O)c4)c4ccccc34)n2)cc(OC)c1', 'pIC50', 9.05),
  ('CN(c1ccccc1)c1nccc(Oc2ccc(NC(=O)Nc3cc(C(C)(C)C)nn3-c3ccc(P(C)(C)=O)cc3)c3ccccc23)n1', 'pIC50', 6.17);

Answer with reported pIC50 of CC(C)c1cc(NC(=O)Nc2ccc(Oc3ccnc(Nc4ccccc4)n3)c3ccccc23)n(-c2ccc(P(C)(C)=O)cc2)n1
7.23

====

- system_name: p38 MAPKα (Homo sapiens (Human), UniProt Q16539)
- Sequence (Q16539 whole entry): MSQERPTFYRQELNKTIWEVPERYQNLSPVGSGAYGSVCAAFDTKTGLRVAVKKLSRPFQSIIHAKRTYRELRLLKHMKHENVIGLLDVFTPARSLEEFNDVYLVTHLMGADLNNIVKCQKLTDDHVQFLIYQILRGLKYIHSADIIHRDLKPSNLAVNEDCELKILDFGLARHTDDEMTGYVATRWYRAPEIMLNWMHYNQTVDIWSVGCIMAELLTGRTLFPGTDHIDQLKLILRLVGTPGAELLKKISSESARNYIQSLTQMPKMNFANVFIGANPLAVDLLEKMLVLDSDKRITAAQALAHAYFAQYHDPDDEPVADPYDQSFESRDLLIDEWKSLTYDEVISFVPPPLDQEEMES
Hi! Could you tag entries with IC50 below 80 nM as 1 (yes), and those at or above as 0 (no)? Much appreciated.

INSERT INTO assay_data (smiles_str, group_label) VALUES
  ('CC(C)(C)c1cc(NC(=O)Nc2ccc(Oc3ccnc(Nc4ccccc4)n3)c3ccccc23)n(-c2ccc(P(C)(C)=O)cc2)n1', '1 (yes)'),
  ('CC(C)(C)c1cc(NC(=O)Nc2ccc(Oc3ccnc(Nc4cc(C(=O)NCCN5CCOCC5)cc(C(F)(F)F)c4)n3)c3ccccc23)n(-c2cccc(CP(C)(C)=O)c2)n1', '0 (no)'),
  ('CC(C)(C)c1cc(NC(=O)Nc2ccc(Oc3ccnc(Nc4ccccc4)c3)c3ccccc23)n(-c2cccc(CP3(=O)CCCC3)c2)n1', '0 (no)');

Here is another molecule to look at.
Does this molecule meet the criterion IC50 < 80 nM? CCP(=O)(CC)c1ccc(-n2nc(C(C)(C)C)cc2NC(=O)Nc2ccc(Oc3ccnc(Nc4ccccc4)n3)c3ccccc23)cc1
1 (yes)

====

- Test system: PBMCs
- procedure_details: LPS-induced TNFα/IL-8 release in PBMC cells
- Format: cell-based
- applied_conditions: Homo sapiens, LPS-stimulated PBMCs, IL-8, read-out: IC50 Values for Inhibition of Cytokine Release, PBMCs IL-8
Give IC50 for every item shown.
Answers are plain numbers, in nM.

INSERT INTO measurements (smiles_str, unit_descriptor, meas_value) VALUES
  ('CC(C)(C)c1cc(NC(=O)Nc2ccc(Oc3ccnc(Nc4ccccc4)n3)c3ccccc23)n(-c2cccc(CP(C)(C)=O)c2)n1', 'nM', 7.5),
  ('CC(C)(C)c1cc(NC(=O)Nc2ccc(Oc3ccnc(Nc4cc(OCCN5CCOCC5)cc(C(F)(F)F)c4)n3)c3ccccc23)n(-c2cccc(CP(C)(C)=O)c2)n1', 'nM', 2.3),
  ('COCCOCCOCCOc1cc(Nc2nccc(Oc3ccc(NC(=O)Nc4cc(C(C)C)nn4-c4cccc(CP(C)(C)=O)c4)c4ccccc34)n2)cc(OC)c1', 'nM', 3.3),
  ('CC(C)(C)c1cc(NC(=O)Nc2ccc(Oc3ccnc(Nc4ccccc4)n3)c3ccccc23)n(-c2ccc(P(C)(=O)O)cc2)n1', 'nM', 407),
  ('COCCOCCOCCOCCOCCOc1cc(Nc2nccc(Oc3ccc(NC(=O)Nc4cc(C(C)C)nn4-c4cccc(CP(C)(C)=O)c4)c4ccccc34)n2)cc(OC)c1', 'nM', 5.4);

For every record below, what is its IC50?
1. CC(C)c1cc(NC(=O)Nc2ccc(Oc3ccnc(Nc4cc(C#N)cc(OCCN5CCOCC5)c4)n3)c3ccccc23)n(-c2cccc(CP(C)(C)=O)c2)n1
2. CC(C)(C)c1cc(NC(=O)Nc2ccc(Oc3ccnc(Nc4ccc(P(C)(C)=O)cc4)n3)c3ccccc23)n(-c2ccc(P(C)(C)=O)cc2)n1
3. CC(C)(C)c1cc(NC(=O)Nc2ccc(Oc3ccnc(Nc4cc(C(=O)NCCN5CCOCC5)cc(C(F)(F)F)c4)n3)c3ccccc23)n(-c2cccc(CP(C)(C)=O)c2)n1
4. CC(C)c1cc(NC(=O)Nc2ccc(Oc3ccnc(Nc4ccccc4)c3)c3ccccc23)n(-c2cccc(CP(C)(C)=O)c2)n1
5. Cc1cc(Nc2nccc(Oc3ccc(NC(=O)Nc4cc(C(C)C)nn4-c4cccc(CP(C)(C)=O)c4)c4ccccc34)n2)cc2cn[nH]c12

2.7
14.4
1.4
5.5
3

// batch mode: one IC50 value per listed entry
1. CC(C)c1cc(NC(=O)Nc2ccc(Oc3ccnc(Nc4cc(OCCN5CCOCC5)cc(OC(F)(F)F)c4)n3)c3ccccc23)n(-c2cccc(CP(C)(C)=O)c2)n1
2. CC(C)c1cc(NC(=O)Nc2ccc(Oc3ccnc(Nc4cc(OCCN5CCOCC5)cc(S(C)(=O)=O)c4)n3)c3ccccc23)n(-c2cccc(CP(C)(C)=O)c2)n1

1: 1.5; 2: 2

The measured values listed here are drawn from patent US9796742B2.
